Tested on: Klebsiella aerogenes
test-details: Antibacterial activity against Enterobacter aerogenes MTCC 111 at 1000 ug/disc after 24 hrs by disc diffusion assay
Assay type: functional
experimental-context: MTCC 111, 24 h, read-out: IZ
For each entry below, report its zone of inhibition at 1000 µg/disc value.
// unit must come after the numeric part

Task item: Give recorded zone of inhibition at 1000 µg/disc with Klebsiella aerogenes for the following molecule: CN1CC2=C(C(=O)c3ccccc3C2=O)C12C(=O)N(Cc1ccccc1)c1ccccc12 (centres undefined)
Reply: 8 mm

Task item: Give recorded zone of inhibition at 1000 µg/disc with Klebsiella aerogenes for the following molecule: CN1CC2=C(C(=O)c3ccccc3C2=O)C12C(=O)Nc1ccccc12 (centres undefined)
Reply: 10 mm

Task item: Give recorded zone of inhibition at 1000 µg/disc with Klebsiella aerogenes for the following molecule: CN1C(=O)C2(C3=C(C(=O)c4ccccc4C3=O)C3CCCN32)c2ccccc21 (centres undefined)
Reply: 9 mm

Task item: Give recorded zone of inhibition at 1000 µg/disc with Klebsiella aerogenes for the following molecule: CN1C(=O)C2(C3=C(CN2C)C(=O)c2ccccc2C3=O)c2ccccc21 (centres undefined)
Reply: 10 mm

Task item: Give recorded zone of inhibition at 1000 µg/disc with Klebsiella aerogenes for the following molecule: O=C1C2=C(C(=O)c3ccccc31)C1(C(=O)N(Cc3ccccc3)c3ccccc31)N1CCCC21 (centres undefined)
Reply: 8 mm

Task item: Give recorded zone of inhibition at 1000 µg/disc with Klebsiella aerogenes for the following molecule: CN1CC2=C(C(=O)c3ccccc3C2=O)C12C(=O)Nc1ccc(Br)cc12 (centres undefined)
Reply: 16 mm

Task item: Give recorded zone of inhibition at 1000 µg/disc with Klebsiella aerogenes for the following molecule: Cc1ccc2c(c1)C1(C(=O)N2C)C2=C(CN1C)C(=O)c1ccccc1C2=O (centres undefined)
Reply: 17 mm

Task item: Give recorded zone of inhibition at 1000 µg/disc with Klebsiella aerogenes for the following molecule: CN1CC2=C(C(=O)c3ccccc3C2=O)C12C(=O)Nc1ccc(I)cc12 (centres undefined)
Reply: 12 mm

Task item: Give recorded zone of inhibition at 1000 µg/disc with Klebsiella aerogenes for the following molecule: O=C1C2=C(C(=O)c3ccccc31)C1(C(=O)Nc3ccc(Cl)cc31)N1CCCC21 (centres undefined)
Reply: 9 mm

Task item: Give recorded zone of inhibition at 1000 µg/disc with Klebsiella aerogenes for the following molecule: CC(=O)N1C(=O)C2(C3=C(CN2C)C(=O)c2ccccc2C3=O)c2ccccc21 (centres undefined)
Reply: 21 mm

Task item: Give recorded zone of inhibition at 1000 µg/disc with Klebsiella aerogenes for the following molecule: CN1CC2=C(C(=O)c3ccccc3C2=O)C12C(=O)c1ccccc1C2=O
Reply: 8 mm

Task item: Give recorded zone of inhibition at 1000 µg/disc with Klebsiella aerogenes for the following molecule: Cc1ccc2c(c1)C1(C(=O)N2)C2=C(CN1C)C(=O)c1ccccc1C2=O (centres undefined)
Reply: 13 mm

Task item: Give recorded zone of inhibition at 1000 µg/disc with Klebsiella aerogenes for the following molecule: CCCCN1C(=O)C2(C3=C(CN2C)C(=O)c2ccccc2C3=O)c2ccccc21 (centres undefined)
Reply: 10 mm

Task item: Give recorded zone of inhibition at 1000 µg/disc with Klebsiella aerogenes for the following molecule: Cc1ccc2c(c1)C1(C(=O)N2)C2=C(C(=O)c3ccccc3C2=O)C2CCCN21 (centres undefined)
Reply: 9 mm

Task item: Give recorded zone of inhibition at 1000 µg/disc with Klebsiella aerogenes for the following molecule: CN1CC2=C(C(=O)c3ccccc3C2=O)C12C(=O)Nc1ccc(Cl)cc12 (centres undefined)
Reply: 10 mm

Task item: Give recorded zone of inhibition at 1000 µg/disc with Klebsiella aerogenes for the following molecule: C#CCN1C(=O)C2(C3=C(CN2C)C(=O)c2ccccc2C3=O)c2ccccc21 (centres undefined)
Reply: 11 mm

Task item: Give recorded zone of inhibition at 1000 µg/disc with Klebsiella aerogenes for the following molecule: CCN1C(=O)C2(C3=C(CN2C)C(=O)c2ccccc2C3=O)c2ccccc21 (centres undefined)
Reply: 12 mm

Task item: Give recorded zone of inhibition at 1000 µg/disc with Klebsiella aerogenes for the following molecule: CCCCCCN1C(=O)C2(C3=C(CN2C)C(=O)c2ccccc2C3=O)c2ccccc21 (centres undefined)
Reply: 13 mm

Task item: Give recorded zone of inhibition at 1000 µg/disc with Klebsiella aerogenes for the following molecule: C=CCN1C(=O)C2(C3=C(CN2C)C(=O)c2ccccc2C3=O)c2ccccc21 (centres undefined)
Reply: 9 mm

---

For each entry below, report its MIC value.
Tested on: Salmonella typhimurium
test-details: Antibacterial activity against Salmonella Typhimurium MTCC 1251 after 24 hrs by two-fold serial dilution method
Format: functional, Salmonella enterica subsp. enterica serovar Typhimurium
experimental-context: Salmonella enterica, MTCC 1251, 24 h
Give the value, in units of µg/mL, as a plain number.

Task item: Give recorded MIC with Salmonella typhimurium for the following compound: Cc1ccc2c(c1)C1(C(=O)N2C)C2=C(CN1C)C(=O)c1ccccc1C2=O (stereo not given)
Reply: 15.6

Task item: Give recorded MIC with Salmonella typhimurium for the following compound: CCN1C(=O)C2(C3=C(CN2C)C(=O)c2ccccc2C3=O)c2ccccc21 (stereo not given)
Reply: 31.2

Task item: Give recorded MIC with Salmonella typhimurium for the following compound: CN1C(=O)C2(C3=C(CN2C)C(=O)c2ccccc2C3=O)c2ccccc21 (stereo not given)
Reply: 125

Task item: Give recorded MIC with Salmonella typhimurium for the following compound: C#CCN1C(=O)C2(C3=C(CN2C)C(=O)c2ccccc2C3=O)c2ccccc21 (stereo not given)
Reply: 62.5

Task item: Give recorded MIC with Salmonella typhimurium for the following compound: CCCCCCN1C(=O)C2(C3=C(CN2C)C(=O)c2ccccc2C3=O)c2ccccc21 (stereo not given)
Reply: 62.5

---

test-details: Antifungal activity against Malassezia pachydermatis at 1000 ug/disc after 48 hrs by disc diffusion assay
Assay type: functional
endpoint-label: inhibition zone (IZ)

Task item: Bench note: what inhibition zone (IZ) did CN1CC2=C(C(=O)c3ccccc3C2=O)C12C(=O)N(Cc1ccccc1)c1ccccc12 (stereo not given) show?
Reply: 9 mm

Task item: Bench note: what inhibition zone (IZ) did CN1C(=O)C2(C3=C(C(=O)c4ccccc4C3=O)C3CCCN32)c2ccccc21 (stereo not given) show?
Reply: 10 mm

Task item: Bench note: what inhibition zone (IZ) did CN1CC2=C(C(=O)c3ccccc3C2=O)C12C(=O)c1cccc3cccc2c13 (stereo not given) show?
Reply: 8 mm

Task item: Bench note: what inhibition zone (IZ) did CCN1C(=O)C2(C3=C(CN2C)C(=O)c2ccccc2C3=O)c2ccccc21 (stereo not given) show?
Reply: 11 mm

---

Tested on: Klebsiella pneumoniae
test-details: Antibacterial activity against Klebsiella pneumoniae MTCC 109 at 1000 ug/disc after 24 hrs by disc diffusion assay
Type: functional
experimental-context: MTCC 109, 24 h, read-out: IZ
For each entry below, report its zone of inhibition at 1000 µg/disc value.
Give the value, in units of mm, as a plain number.

Task item: Bench note: what zone of inhibition at 1000 µg/disc did CN1CC2=C(C(=O)c3ccccc3C2=O)C12C(=O)Nc1ccc(Cl)cc12 (stereo not given) show?
Reply: 13

Task item: Bench note: what zone of inhibition at 1000 µg/disc did CN1CC2=C(C(=O)c3ccccc3C2=O)C12C(=O)Nc1ccc(I)cc12 (stereo not given) show?
Reply: 11

Task item: Bench note: what zone of inhibition at 1000 µg/disc did C=CCN1C(=O)C2(C3=C(CN2C)C(=O)c2ccccc2C3=O)c2ccccc21 (stereo not given) show?
Reply: 9

Task item: Bench note: what zone of inhibition at 1000 µg/disc did CN1C(=O)C2(C3=C(CN2C)C(=O)c2ccccc2C3=O)c2ccccc21 (stereo not given) show?
Reply: 18

Task item: Bench note: what zone of inhibition at 1000 µg/disc did Cc1ccc2c(c1)C1(C(=O)N2C)C2=C(CN1C)C(=O)c1ccccc1C2=O (stereo not given) show?
Reply: 13

Task item: Bench note: what zone of inhibition at 1000 µg/disc did CN1CC2=C(C(=O)c3ccccc3C2=O)C12C(=O)Nc1ccccc12 (stereo not given) show?
Reply: 13

Task item: Bench note: what zone of inhibition at 1000 µg/disc did CC(=O)N1C(=O)C2(C3=C(CN2C)C(=O)c2ccccc2C3=O)c2ccccc21 (stereo not given) show?
Reply: 24

Task item: Bench note: what zone of inhibition at 1000 µg/disc did CN1CC2=C(C(=O)c3ccccc3C2=O)C12C(=O)Nc1ccc(Br)cc12 (stereo not given) show?
Reply: 10

Task item: Bench note: what zone of inhibition at 1000 µg/disc did CCCCCCN1C(=O)C2(C3=C(CN2C)C(=O)c2ccccc2C3=O)c2ccccc21 (stereo not given) show?
Reply: 10

Task item: Bench note: what zone of inhibition at 1000 µg/disc did CN1CC2=C(C(=O)c3ccccc3C2=O)C12C(=O)N(Cc1ccccc1)c1ccccc12 (stereo not given) show?
Reply: 10
